# System: NCI-H226 lung
# procedureSummary: NCI-60 one-dose screen, 48 h (100 = growth as untreated, 0 = no growth, -100 = all killed)
# testContext: 10 µM unless noted
This is part of a sample that, as a whole, favours compounds with a hit. Of some 83,000 tested, about 20% had one in any assay. Calls of active or inactive are those of the source. The calls were made as follows: active = growth percent below 10; inactive = the rest.
In this section we review reported growth values for a set of compounds.

// below: answered compounds
[[record]]
compound = "COc1ccc(CN2c3ccccc3Sc3ccccc32)c(F)c1"
reportedmetric = "growth"
reportedresult = "56.1% (inactive)"

[[record]]
compound = "C#Cc1cccc(NC(=O)c2ccc(NC(=O)C=C)cc2)c1"
reportedmetric = "growth"
reportedresult = "88.1% [8.25 µM] (inactive)"

[[record]]
compound = "c1ccc(CO[C@H]2CO[C@H]3[C@@H]2OC[C@@H]3Oc2ccc(Nc3ncnc4ccsc34)cc2)cc1"
reportedmetric = "growth"
reportedresult = "80.3% (inactive)"

[[record]]
compound = "CCc1cccc2c3c(sc12)C(c1ccc(F)cc1)C(C#N)=C(N)O3 (stereo unspecified)"
reportedmetric = "growth"
reportedresult = "29.1% (inactive)"

[[record]]
compound = "COc1ccc(C2CC(c3ccc(Nc4ccnc5cc(Cl)ccc45)cc3)=NN2C=O)cc1 (stereo unspecified)"
reportedmetric = "growth"
reportedresult = "90.5% (inactive)"


Turning now to a further record.
growth recorded for this compound, CCOC(=O)C1=C(N)Oc2c(sc3c(C)cccc23)C1c1ccc(OC)cc1 (stereo unspecified) , is 55.2% (inactive)

Taken from PubChem BioAssay (NCI).
